As shown below, each of these compounds has a reported IC50 value.
Test system: LoVo cells
assay-procedure: MTS cell viability assay, LoVo cells
Assay type: cell-based, human
conditions: Homo sapiens, LoVo; 24 h exposure; read-out: IC50 (24 h) LoVo

Examples with answers:
{"smiles-string": "O=C(Nc1nnc(-c2ccccc2)s1)c1ccccc1CSc1ccccc1", "tested-system": "LoVo cells", "IC50": "> 400 µM"}
{"smiles-string": "CC(=O)Nc1nnc(-c2ccccc2)s1", "tested-system": "LoVo cells", "IC50": "> 400 µM"}

Attention now shifts to the item below.
(Q) Supply recorded IC50 for "Nc1nnc(-c2ccccc2CSc2ccccc2)s1" here.
(A) > 400 µM
